Biological target: IDH1 wild-type (Homo sapiens (Human), UniProt O75874)
Sequence (O75874 whole entry): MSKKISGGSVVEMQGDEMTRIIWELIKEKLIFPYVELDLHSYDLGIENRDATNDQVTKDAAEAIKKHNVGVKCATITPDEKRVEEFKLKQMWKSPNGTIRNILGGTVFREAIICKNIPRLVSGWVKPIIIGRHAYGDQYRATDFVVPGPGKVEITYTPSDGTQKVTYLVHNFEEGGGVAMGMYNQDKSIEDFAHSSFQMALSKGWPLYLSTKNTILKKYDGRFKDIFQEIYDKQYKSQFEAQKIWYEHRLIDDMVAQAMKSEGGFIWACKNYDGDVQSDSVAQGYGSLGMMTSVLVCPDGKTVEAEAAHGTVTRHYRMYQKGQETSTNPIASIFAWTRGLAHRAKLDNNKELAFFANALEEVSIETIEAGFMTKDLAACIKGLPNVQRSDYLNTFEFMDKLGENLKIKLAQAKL
Assay: Oxidative decarboxylation of isocitrate to α-KG by IDH1 wild-type (340 nm)
Assay type: biochemical
Conditions: IDH1 wt 1.5 ug/ml, NADP 0.5 mM, DL-isocitrate 5-650 uM; read-out: Oxalomalate Ki
experimentalReadout: Ki (µM)
Quick reminder: number only, in µM, skip the unit.

Using the record for O=C(O)C(=O)C(C(=O)O)C(O)C(=O)O (stereo not shown) [Oxalomalate, oxalomalate] , report its Ki. 955

Origin of values: patent US10610125B2
